The reported measurements were obtained from ChEMBL document CHEMBL1129793.

Answer each item with its documented half-life.
protocolNotes: T1/2 in equine serum
Format: ADME, organism-based, Equus caballus
condition: horse
Quick note: give the figure in min, leave out the unit.

stdin: Look up half-life for this molecule: CCCCCC(C)OC(=O)c1cnc(Cl)cn1 (configuration not stated)
stdout: 16.2

stdin: Fill in: half-life of CCCCCCCCCCCC(C)OC(=O)c1cnc(Cl)cn1 (configuration not stated) is ___
stdout: 50

stdin: Query: half-life; subject: CC(C)(C)OC(=O)c1cnc(Cl)cn1
stdout: 1200

stdin: GET /values?readout=half-life&item= CCCOC(=O)c1cnc(Cl)cn1
stdout: 18.7

stdin: Record request: half-life value, item CCCCCC(C)(CCCC)OC(=O)c1cnc(Cl)cn1 (configuration not stated)
stdout: 390

stdin: Name the reported half-life value associated with the molecule CCCCCC(CC)OC(=O)c1cnc(Cl)cn1 (configuration not stated)
stdout: 7

stdin: Would you kindly share the measured half-life for CCCCCCCCC(C)(C)OC(=O)c1cnc(Cl)cn1 ?
stdout: 957

----------
Tested on: Mycobacterium avium
protocolNotes: In vitro activity against Mycobacterium avium (MAC-101)
Format: functional
measurementLabel: Log 1/MMIC
Reply with the value as a number alone.

stdin: Which value of Log 1/MMIC has been reported for COC(=O)c1cnccn1 in the records?
stdout: -0.268

stdin: Quick check: Log 1/MMIC of COC(=O)c1cnc(C)cn1 ?
stdout: -0.226

stdin: # lookup: Log 1/MMIC of CCCCCC(CC)OC(=O)c1cnc(C)cn1 (stereo unspecified)
stdout: 0.592

stdin: Dear colleague, I am looking for the recorded Log 1/MMIC of the following compound: CCCCCCC(C)OC(=O)c1cnc(F)cn1 (stereo unspecified)
stdout: 0.9

stdin: Given COC(=O)c1cnc(OC)cn1 , state its recorded Log 1/MMIC.
stdout: -0.183

stdin: Look up Log 1/MMIC for this compound: CCC(C)OC(=O)c1cnccn1 (stereo unspecified)
stdout: -0.152

stdin: // query Log 1/MMIC value for entry CCCCCCOC(=O)c1cnc(F)cn1
stdout: 0.548

stdin: # input compound: CC(C)COC(=O)c1cnccn1 ; wanted: its Log 1/MMIC
stdout: -0.152

stdin: Give the measured Log 1/MMIC of COC(=O)c1cnc(F)cn1 .
stdout: 0.387

stdin: Quick one: Log 1/MMIC of O=C(OCc1ccccc1)c1cnccn1 ?
stdout: 0.525

stdin: What measured Log 1/MMIC goes with CCCOC(=O)c1cnc(C)cn1 ?
stdout: 0.45

----------
System: Mycobacterium avium
protocolNotes: In vitro activity against Mycobacterium avium (MAC-101).
Format: functional
For each entry below, report its Log 1/MMIC value.
Give the figure by itself; no unit, no explanation.

stdin: Provide the documented Log 1/MMIC with Mycobacterium avium as the system for CC(C)COC(=O)c1cnc(Cl)cn1
stdout: 0.526

stdin: # query: Log 1/MMIC | item CCCCCCCCCCCC(C)OC(=O)c1cnc(Cl)cn1 (stereo not given) | system: Mycobacterium avium
stdout: 0.124

stdin: State its Log 1/MMIC on Mycobacterium avium: CCCCCCC(C)(CCCCC)OC(=O)c1cnc(Cl)cn1 (stereo not given)
stdout: 0.726

stdin: Param readout = Log 1/MMIC; param system = Mycobacterium avium; param query = CCCCCCCOC(=O)c1cnc(C)cn1 ; response: value
stdout: 0.868

stdin: Query the reported Log 1/MMIC for Mycobacterium avium; item: CCCCCC(CC)OC(=O)c1cnc(Cl)cn1 (stereo not given)
stdout: 0.626

stdin: Enter reported Log 1/MMIC observed with Mycobacterium avium for CC(C)(C)OC(=O)c1cnc(Cl)cn1
stdout: 0.225

stdin: Recall the recorded Log 1/MMIC for CCCCCCCOC(=O)c1cnc(Cl)cn1 with Mycobacterium avium and state it.
stdout: 1.506

stdin: Please tell me: Log 1/MMIC of CCCCCCCCOC(=O)c1cnc(Cl)cn1 , system Mycobacterium avium?
stdout: 1.228

stdin: Form field - read-out: Log 1/MMIC; system: Mycobacterium avium; submitted item: CCCCCC(C)(CCCC)OC(=O)c1cnc(Cl)cn1 (stereo not given)
stdout: 0.087

stdin: Form entry - test system: Mycobacterium avium; read-out: Log 1/MMIC; molecule: CCCCCCCCC(C)(CCCC)OC(=O)c1cnc(Cl)cn1 (stereo not given)
stdout: 0.744
